system: FXR:RXRa (NR concentration 270 nM, RXRa partner concentration 90 nM); experiment: PBM binding z-score (relative to random genomic background probes); higher = stronger binding; sequences stand for … in GC…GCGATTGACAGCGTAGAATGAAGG
Mark label 0 for PBM binding z-score values under 5, and label 1 for everything at or above.

* AGAATGAGGTTATACGTAGATCAGGGTAGAAAGT | label 0
* GGAAGGAGGGCAAGTTGATAGCAGAGTTTGATGG | label 0
* CCTGCTAGATCATGGTCAGCTAATCTACAGTATG | label 0
* AATACTGGGTCACTAGGCCAGAGTAGGTACGAAT | label 0
* CAAACTAGGTTACGAAAGGTCAAAGTCGAATGAC | label 1
* CGAACTAGCTCAGAACAGGACAGTGAAGGATGAT | label 0
* TCTAGTTGGTCAAAGCTCACACACTCGAAATGCG | label 0
* AATACAGGGTCATCGTAGGCCAGAGAACGCACAG | label 1
* TCTTGTAGATCAAGCAGGTTAAGAAGGCCTGAGT | label 0
* CCGACTGGGGCAGAAAAGTTACCATACCATCCGG | label 0
